- test system: Adenosine receptor A1 (Rattus norvegicus, UniProt P25099)
- Sequence (P25099 whole entry): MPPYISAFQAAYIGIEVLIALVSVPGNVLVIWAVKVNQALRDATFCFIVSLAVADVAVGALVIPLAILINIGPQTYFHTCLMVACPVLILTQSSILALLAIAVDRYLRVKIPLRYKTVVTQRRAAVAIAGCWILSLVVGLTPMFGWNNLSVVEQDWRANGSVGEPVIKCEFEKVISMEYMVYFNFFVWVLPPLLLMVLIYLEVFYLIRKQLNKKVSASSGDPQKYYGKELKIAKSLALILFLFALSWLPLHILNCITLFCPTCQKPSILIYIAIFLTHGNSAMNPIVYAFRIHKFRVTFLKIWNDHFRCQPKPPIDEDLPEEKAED
- protocol summary: Displacement of [3H]CCPA from adenosine A1 receptor in Wistar rat cerebral cortex by liquid scintillation counting
- Assay type: tissue-based
measured metric: Ki
A complete answer gives the number and then names the unit.

// worked examples, Ki included
1) Nc1ccc(Nc2nc(-c3ccccc3)nc3c2ncn3Cc2ccccc2)cc1 :: 294 nM
2) Nc1ccc(Nc2nc(-c3ccccc3)nc3c2nnn3Cc2ccccc2)cc1 :: 103 nM

Task item: State the recorded Ki for this entry: `O=[N+]([O-])c1ccc(Nc2nc(-c3ccccc3)nc3c2ncn3Cc2ccccc2)cc1`
Reply: 571 nM

----------
- test system: Adenosine receptor A3 (Homo sapiens) (UniProt P0DMS8)
- Sequence (whole entry): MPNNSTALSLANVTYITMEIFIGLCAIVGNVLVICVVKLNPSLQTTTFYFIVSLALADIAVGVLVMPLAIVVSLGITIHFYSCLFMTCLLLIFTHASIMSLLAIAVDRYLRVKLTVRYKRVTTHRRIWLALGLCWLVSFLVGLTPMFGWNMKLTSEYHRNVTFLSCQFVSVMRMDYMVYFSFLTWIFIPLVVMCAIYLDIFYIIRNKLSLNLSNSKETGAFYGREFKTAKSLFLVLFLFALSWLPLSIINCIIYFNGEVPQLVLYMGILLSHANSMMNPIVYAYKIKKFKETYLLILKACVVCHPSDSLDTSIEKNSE
- protocol summary: Displacement of [3H]NECA from human recombinant adenosine A3 receptor expressed in CHO cells at 10 uM by liquid scintillation counting relative to control
- Type: cell-based
Please note: t applies when Activity is 60% or greater, and f applies otherwise.

Use these answered entries as a reference point.
1. O=C(Nc1ccccc1)Nc1ccc(Nc2nc(-c3ccccc3)nc3c2ncn3Cc2ccccc2)cc1 :: f
2. O=C(Nc1ccc(F)cc1)Nc1ccc(Nc2nc(-c3ccccc3)nc3c2nnn3Cc2ccccc2)cc1 :: t
3. O=[N+]([O-])c1ccc(Nc2nc(-c3ccccc3)nc3c2nnn3Cc2ccccc2)cc1 :: f

Task item: Reported Activity at or above 60%? `Nc1ccc(Nc2nc(-c3ccccc3)nc3c2ncn3Cc2ccccc2)cc1`
Reply: f

Task item: Reported Activity at or above 60%? `O=C(Nc1ccc(Nc2nc(-c3ccccc3)nc3c2nnn3Cc2ccccc2)cc1)Nc1ccc(C(F)(F)F)cc1`
Reply: t

Task item: Reported Activity at or above 60%? `O=[N+]([O-])c1ccc(Nc2nc(-c3ccccc3)nc3c2ncn3Cc2ccccc2)cc1`
Reply: f

Task item: Reported Activity at or above 60%? `COc1ccc(NC(=O)Nc2ccc(Nc3nc(-c4ccccc4)nc4c3nnn4Cc3ccccc3)cc2)cc1`
Reply: f

----------
- test system: Adenosine receptor A1 (Rattus norvegicus)
- protocol summary: Displacement of [3H]DPCPX from adenosine A1 receptor in Wistar rat cerebral cortex at 10 uM by liquid scintillation counting relative to control
- Assay type: tissue-based
measured metric: Activity (%)
Kindly answer with a numeric value in %, unit omitted.

// worked examples, Activity included
1) O=C(Nc1ccccc1)Nc1ccc(Nc2nc(-c3ccccc3)nc3c2nnn3Cc2ccccc2)cc1 :: 110
2) O=C(Nc1ccc(F)cc1)Nc1ccc(Nc2nc(-c3ccccc3)nc3c2ncn3Cc2ccccc2)cc1 :: 105
3) COc1ccc(NC(=O)Nc2ccc(Nc3nc(-c4ccccc4)nc4c3ncn4Cc3ccccc3)cc2)cc1 :: 107
4) Nc1ccc(Nc2nc(-c3ccccc3)nc3c2nnn3Cc2ccccc2)cc1 :: 33
5) O=C(Nc1ccccc1)Nc1ccc(Nc2nc(-c3ccccc3)nc3c2ncn3Cc2ccccc2)cc1 :: 101

Task item: State the recorded Activity for this entry: `O=[N+]([O-])c1ccc(Nc2nc(-c3ccccc3)nc3c2ncn3Cc2ccccc2)cc1`
Reply: 84

Task item: State the recorded Activity for this entry: `O=C(Nc1ccc(F)cc1)Nc1ccc(Nc2nc(-c3ccccc3)nc3c2nnn3Cc2ccccc2)cc1`
Reply: 107

Task item: State the recorded Activity for this entry: `Nc1ccc(Nc2nc(-c3ccccc3)nc3c2ncn3Cc2ccccc2)cc1`
Reply: 46

Task item: State the recorded Activity for this entry: `O=[N+]([O-])c1ccc(Nc2nc(-c3ccccc3)nc3c2nnn3Cc2ccccc2)cc1`
Reply: 105

----------
- test system: Adenosine receptor A1 (Rattus norvegicus)
- protocol summary: Displacement of [3H]CCPA adenosine A1 receptor in Wistar rat cerebral cortex at 10 uM by liquid scintillation counting relative to control
- Format: tissue-based
Activity overview
Kindly answer with a numeric value in %, unit omitted.

1. O=C(Nc1ccc(F)cc1)Nc1ccc(Nc2nc(-c3ccccc3)nc3c2nnn3Cc2ccccc2)cc1 :: 72
2. Nc1ccc(Nc2nc(-c3ccccc3)nc3c2nnn3Cc2ccccc2)cc1 :: 4
3. O=C(Nc1ccc(Nc2nc(-c3ccccc3)nc3c2nnn3Cc2ccccc2)cc1)Nc1ccc(C(F)(F)F)cc1 :: 74
4. O=[N+]([O-])c1ccc(Nc2nc(-c3ccccc3)nc3c2nnn3Cc2ccccc2)cc1 :: 33
5. O=C(Nc1ccccc1)Nc1ccc(Nc2nc(-c3ccccc3)nc3c2nnn3Cc2ccccc2)cc1 :: 79

Task item: State the recorded Activity for this entry: `COc1ccc(NC(=O)Nc2ccc(Nc3nc(-c4ccccc4)nc4c3ncn4Cc3ccccc3)cc2)cc1`
Reply: 68

Task item: State the recorded Activity for this entry: `O=[N+]([O-])c1ccc(Nc2nc(-c3ccccc3)nc3c2ncn3Cc2ccccc2)cc1`
Reply: 2

Task item: State the recorded Activity for this entry: `O=C(Nc1ccc(F)cc1)Nc1ccc(Nc2nc(-c3ccccc3)nc3c2ncn3Cc2ccccc2)cc1`
Reply: 85

Task item: State the recorded Activity for this entry: `COc1ccc(NC(=O)Nc2ccc(Nc3nc(-c4ccccc4)nc4c3nnn4Cc3ccccc3)cc2)cc1`
Reply: 74

Task item: State the recorded Activity for this entry: `Nc1ccc(Nc2nc(-c3ccccc3)nc3c2ncn3Cc2ccccc2)cc1`
Reply: 7

Task item: State the recorded Activity for this entry: `O=C(Nc1ccccc1)Nc1ccc(Nc2nc(-c3ccccc3)nc3c2ncn3Cc2ccccc2)cc1`
Reply: 73

Task item: State the recorded Activity for this entry: `O=C(Nc1ccc(Nc2nc(-c3ccccc3)nc3c2ncn3Cc2ccccc2)cc1)Nc1ccc(C(F)(F)F)cc1`
Reply: 67

----------
- test system: Adenosine receptor A2a (Homo sapiens, UniProt P29274)
- Sequence (P29274 whole entry): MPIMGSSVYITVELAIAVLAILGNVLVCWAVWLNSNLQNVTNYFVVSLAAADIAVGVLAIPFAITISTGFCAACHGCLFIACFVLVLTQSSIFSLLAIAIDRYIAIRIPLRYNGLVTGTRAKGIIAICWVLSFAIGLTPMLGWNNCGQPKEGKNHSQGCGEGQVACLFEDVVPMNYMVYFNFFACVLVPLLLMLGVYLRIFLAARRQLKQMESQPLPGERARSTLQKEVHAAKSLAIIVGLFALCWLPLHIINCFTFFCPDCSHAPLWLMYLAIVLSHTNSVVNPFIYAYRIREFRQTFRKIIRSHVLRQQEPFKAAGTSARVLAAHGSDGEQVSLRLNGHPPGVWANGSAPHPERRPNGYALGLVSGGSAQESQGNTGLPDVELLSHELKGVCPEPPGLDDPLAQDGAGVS
- protocol summary: Displacement of [3H]ZM241385 from human recombinant adenosine A2A receptor expressed in CHO cells by liquid scintillation counting
- Format: cell-based
measured metric: pEC50
Formally, pEC50 is defined as -log10 of the concentration c, with c in mol/L.

1) O=C(Nc1ccc(F)cc1)Nc1ccc(Nc2nc(-c3ccccc3)nc3c2nnn3Cc2ccccc2)cc1 :: 4.80

Task item: State the recorded pEC50 for this entry: `Nc1ccc(Nc2nc(-c3ccccc3)nc3c2nnn3Cc2ccccc2)cc1`
Reply: 5.01

----------
- test system: Adenosine receptor A2a (Homo sapiens, UniProt P29274)
- protocol summary: Displacement of [3H]ZM241385 from human recombinant adenosine A2A receptor expressed in CHO cells at 10 uM by liquid scintillation counting relative to control
- Assay type: cell-based
Activity overview
Kindly answer with a numeric value in %, unit omitted.

Task item: What reported Activity corresponds to `COc1ccc(NC(=O)Nc2ccc(Nc3nc(-c4ccccc4)nc4c3nnn4Cc3ccccc3)cc2)cc1` on Adenosine receptor A2a (Homo sapiens, UniProt P29274)?
Reply: 142

----------
- test system: Adenosine receptor A1 (Rattus norvegicus) (UniProt P25099)
- protocol summary: Displacement of [3H]DPCPX from adenosine A1 receptor in Wistar rat cerebral cortex at 10 uM by liquid scintillation counting relative to control
- Type: tissue-based
measured metric: Activity (%)
Kindly answer with a numeric value in %, unit omitted.

// worked examples, Activity included
1. O=C(Nc1ccc(Nc2nc(-c3ccccc3)nc3c2nnn3Cc2ccccc2)cc1)Nc1ccc(C(F)(F)F)cc1 :: 94
2. O=C(Nc1ccc(Nc2nc(-c3ccccc3)nc3c2ncn3Cc2ccccc2)cc1)Nc1ccc(C(F)(F)F)cc1 :: 106

Now for a further compound.
Task item: State the recorded Activity for this entry: `COc1ccc(NC(=O)Nc2ccc(Nc3nc(-c4ccccc4)nc4c3nnn4Cc3ccccc3)cc2)cc1`
Reply: 105

----------
Ki overview
- test system: Adenosine receptor A2a (Homo sapiens)
- protocol summary: Displacement of [3H]CGS21680 from human recombinant adenosine A2A receptor expressed in CHO cells by liquid scintillation counting
- Format: cell-based
Kindly answer with a numeric value in nM, unit omitted.

1) Nc1ccc(Nc2nc(-c3ccccc3)nc3c2nnn3Cc2ccccc2)cc1 :: 280

Now for a further compound.
Task item: State the recorded Ki for this entry: `Nc1ccc(Nc2nc(-c3ccccc3)nc3c2ncn3Cc2ccccc2)cc1`
Reply: 4170

----------
- test system: UniProtKB P0DMS8
- Sequence (whole entry): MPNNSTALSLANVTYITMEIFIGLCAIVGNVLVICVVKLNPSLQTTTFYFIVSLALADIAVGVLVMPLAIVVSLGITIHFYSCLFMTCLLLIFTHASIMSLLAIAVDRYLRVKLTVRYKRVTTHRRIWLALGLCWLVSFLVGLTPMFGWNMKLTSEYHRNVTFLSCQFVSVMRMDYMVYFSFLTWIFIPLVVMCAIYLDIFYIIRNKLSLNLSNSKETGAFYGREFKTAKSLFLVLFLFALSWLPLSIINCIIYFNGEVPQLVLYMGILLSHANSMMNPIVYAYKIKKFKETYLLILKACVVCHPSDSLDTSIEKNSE
- protocol summary: Displacement of [3H]NECA from human recombinant adenosine A3 receptor expressed in CHO cells at 10 uM by liquid scintillation counting relative to control
- Type: cell-based
Returns: string. Value is true (1) if measured Activity is below 60%, and false (0) if it is greater than or equal to it.

Use these answered entries as a reference point.
1. O=C(Nc1ccccc1)Nc1ccc(Nc2nc(-c3ccccc3)nc3c2nnn3Cc2ccccc2)cc1 :: false (0)
2. COc1ccc(NC(=O)Nc2ccc(Nc3nc(-c4ccccc4)nc4c3ncn4Cc3ccccc3)cc2)cc1 :: true (1)
3. O=C(Nc1ccc(F)cc1)Nc1ccc(Nc2nc(-c3ccccc3)nc3c2ncn3Cc2ccccc2)cc1 :: false (0)
4. O=C(Nc1ccc(Nc2nc(-c3ccccc3)nc3c2ncn3Cc2ccccc2)cc1)Nc1ccc(C(F)(F)F)cc1 :: true (1)

Task item: Does this molecule meet the criterion Activity < 60%? `Nc1ccc(Nc2nc(-c3ccccc3)nc3c2nnn3Cc2ccccc2)cc1`
Reply: true (1)
